# Tested on: HOP-62 NSCLC
# PROCEDURE DETAILS: NCI-60 one-dose screen, 48 h (100 = growth as untreated, 0 = no growth, -100 = all killed)
# MEASUREMENT SETUP: 10 µM unless noted
This is part of a sample that, as a whole, favours compounds with a hit. Of some 83,000 tested, about 20% had one in any assay. The source made the active and inactive calls. Rule for the calls: active = growth percent below 10; inactive = the rest.
READOUT NAME: growth

{"MOLECULE": "N#Cc1ccc(NC(=O)c2sc3nc4c(cc3c2N)C(=O)CCC4)cc1", "OBS VALUE": "101% (inactive)"}
{"MOLECULE": "COC(=O)[C@H](C)NC(=O)NC(=O)NC(=O)CI", "OBS VALUE": "98.4% (inactive)"}
{"MOLECULE": "Cc1cc2nc3cc(C)c(N)cc3[n+](-c3ccccc3)c2cc1N", "OBS VALUE": "52.7% (inactive)"}
{"MOLECULE": "Oc1ccc(C#CCOc2ccccc2)cc1CNCCN(Cc1ccccn1)Cc1ccccn1", "OBS VALUE": "13.3% (inactive)"}
{"MOLECULE": "CN(C)CCN1CCN(c2ncccc2C2Nc3ccccc3-n3cccc32)CC1 (configuration not stated)", "OBS VALUE": "109% (inactive)"}

GET /values?item= `CCOC(=O)c1c(C)nc2c(c1N)CC(=O)N2Cc1ccc(F)cc1` &system= HOP-62 NSCLC returns growth: 82.1% (inactive)

GET /values?item= `O=C(/C=C/c1cccc2ccccc12)c1ccc(NC(=O)c2ccccc2CN2C(=O)c3ccccc3C2=O)cc1` &system= HOP-62 NSCLC returns growth: 94.2% (inactive)

GET /values?item= `CCOC(=O)c1sc2ncc(-c3ccc(C)cc3)n2c1C` &system= HOP-62 NSCLC returns growth: 87.9% (inactive)

GET /values?item= `O=c1c2cc(F)ccc2sc2c(NCCO)nc3ccccc3c12` &system= HOP-62 NSCLC returns growth: 105% (inactive)

GET /values?item= `Cc1ccc2sc3c(NCCN)nc4ccccc4c3c(=O)c2c1` &system= HOP-62 NSCLC returns growth: 80.6% (inactive)

GET /values?item= `c1ccc(-c2nc3nonc3nc2-c2ccccc2)cc1` &system= HOP-62 NSCLC returns growth: 79% (inactive)

GET /values?item= `Cc1c(C(=O)NCCN2CCOCC2)cn2ncnc(Oc3ccc(NC(=O)Nc4ccc(Cl)c(C(F)(F)F)c4)cc3)c12` &system= HOP-62 NSCLC returns growth: 20.5% (inactive)
